Source: patent US9045498B2

- Target Or Test System: BACE1 enzyme (Homo sapiens (Human))
- Sequence (P56817 46-457): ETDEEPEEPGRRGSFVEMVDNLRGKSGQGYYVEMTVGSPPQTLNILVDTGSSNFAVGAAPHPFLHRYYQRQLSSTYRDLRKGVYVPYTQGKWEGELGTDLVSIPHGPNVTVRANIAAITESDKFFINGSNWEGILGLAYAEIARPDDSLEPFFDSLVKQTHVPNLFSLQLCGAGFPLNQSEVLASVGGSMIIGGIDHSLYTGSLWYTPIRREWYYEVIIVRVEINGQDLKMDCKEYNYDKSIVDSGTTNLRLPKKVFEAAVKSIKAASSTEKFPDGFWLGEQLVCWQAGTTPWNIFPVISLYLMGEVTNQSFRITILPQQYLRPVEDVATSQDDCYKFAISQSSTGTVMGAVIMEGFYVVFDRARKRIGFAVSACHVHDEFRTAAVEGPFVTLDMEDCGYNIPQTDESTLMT
Measured Endpoint: pIC50
Answers are plain numbers, as −log10 of the molar value.

- Compound: "C[C@H]1C[C@H]2CSC(N)=N[C@@]2(c2cc(C#N)ccc2F)CO1 [Example 14]"
  Observed Measurement: 6.01
- Compound: "NC1=N[C@@]2(c3cc(CNCC(F)(F)F)ccc3F)CO[C@@H](CF)C[C@H]2CS1 [Example 15]"
  Observed Measurement: 6.42
- Compound: "COc1cc(F)c([C@]23CO[C@@H](COCc4ccccc4)C[C@H]2CSC(N)=N3)cc1C#N [Example 1]"
  Observed Measurement: 5.91

Consider the additional compound presented here.
So, C[C@H]1C[C@H]2CSC(N)=N[C@@]2(c2cc(C#N)ccc2Cl)CO1 [Example 6] ? Its pIC50 was 5.63

* * *

Below are pIC50 values recorded for BACE1 enzyme (Homo sapiens (Human)).
Answers are plain numbers, as −log10 of the molar value.

See these solved cases before continuing.
- Compound: "N#Cc1cc([C@]23CO[C@@H](COCc4ccccc4)C[C@H]2CSC(N)=N3)c(F)cc1F"
  Target Or Test System: "BACE1 enzyme (Homo sapiens (Human))"
  pIC50: 6.35
- Compound: "COC[C@@H](C)NCc1ccc(F)c([C@]23CO[C@@H](c4cnn(C)c4)C[C@H]2CSC(N)=N3)c1 (relative stereo)"
  Target Or Test System: "BACE1 enzyme (Homo sapiens (Human))"
  pIC50: 7.44
- Compound: "Cc1coc([C@H]2C[C@H]3CSC(N)=N[C@@]3(c3cc(C#N)ccc3F)CO2)n1"
  Target Or Test System: "BACE1 enzyme (Homo sapiens (Human))"
  pIC50: 6.97

So, N#Cc1ccc(F)c([C@]23CO[C@@H](C4CC4)C[C@H]2CSC(N)=N3)c1 ? Its pIC50 was 6.47
